Test system: SN12C renal
Test protocol: NCI tumour cell line growth inhibition, 48 h
What TGI was measured for each of the following?
# number only, unit µM dropped from output

Check the records and state TGI for CC(=O)OC1Oc2ccc(C)cc2-c2oc(=O)c(-c3cc4ccccc4oc3=O)cc21 (stereo unspecified) 9.89

Check the records and state TGI for `CCCCCCCC/C=C\CCCCCCC/C=C1/C[C@](/C=C/C(=O)OC)(CO)OC1=O` 14.8

Check the records and state TGI for CCn1cc(C(=O)N/N=C/c2ccc(Br)cc2)c(=O)c2cc(F)c(N3CCNC(C)C3)c(F)c21 (stereo unspecified) 3.01

Check the records and state TGI for CC(=O)NC1=C(C)C(=O)c2c(nc3n2CCC3OC(=O)c2ccccc2)C1=O (stereo unspecified) 3.41

Check the records and state TGI for `CCNC(=S)NNC(=O)c1csc(NC(=S)NC2CCCCC2)n1` 17.3

Check the records and state TGI for `COc1ccc2c(c1OC)CO[C@@H]2[C@H]1c2c(c(Br)c3c(c2OC)OCO3)CCN1C` 16.8

Check the records and state TGI for CC(C)=NNc1ncnc2c1ncn2C1OC(CO)C(O)C1O (stereo unspecified) 15.3

Check the records and state TGI for CC(=O)NC1=C(C)C(=O)c2c(nc3n2CCC3OC(=O)CCl)C1=O (stereo unspecified) 24.1

Check the records and state TGI for `O=C1c2ccc3cc(CCl)cc(O)c3c2C(=O)c2cccc(O)c21` 7.26

----------
What TGI was measured for each of the following?
Test system: SNB-19 CNS
Test protocol: NCI tumour cell line growth inhibition, 48 h

Check the records and state TGI for `O=c1[nH]nc(Cc2ccccc2)n1O` > 100 µM

Check the records and state TGI for `O=C(CNc1c(Cl)cccc1Cl)Nc1ccc(-c2nc3ccccc3s2)cc1` 12.5 µM

Check the records and state TGI for C/C=C\C(CC(=O)O)CN1CCC2=C(C1)C(S(=O)(=O)C(F)(F)F)c1ccccc12 (centres undefined) > 100 µM

Check the records and state TGI for `CN(C)CCCCC1CCN(CC(=O)N2c3ccccc3NC(=O)c3ccccc32)CC1` > 100 µM

Check the records and state TGI for `Nc1c(C(=O)Nc2ccccn2)sc2nc3c(cc12)CCCCC3` > 50 µM

Check the records and state TGI for Cc1c2cnccc2c(C)c2c1c1ccccc1n2CC1CO1 (centres undefined) 5.59 µM

Check the records and state TGI for `COc1cc(-c2nn(-c3ccc(NC(=O)NCCCNC(=O)c4ccccc4)cc3)cc2-c2ccncc2)ccc1Cl` > 100 µM

Check the records and state TGI for `CCNC(=S)NNC(=O)c1csc(NC(=S)NC2CCCCC2)n1` > 100 µM

Check the records and state TGI for `C=C=C(C)C(=O)N(C(C)C)C(C)C` > 100 µM

Check the records and state TGI for O=C1CC2(CCC(O)(c3cccc4ccccc34)C(C(=O)c3cccc4ccccc34)C2)C(=O)c2ccccc2N1 (centres undefined) 47.7 µM

Check the records and state TGI for `Oc1c(Cl)cc(Cl)c2ccc(Cn3cc(-c4cc(F)cc(F)c4)nn3)nc12` 25.1 µM

Check the records and state TGI for O=c1ccn(C2OC(COC3CCCCO3)C(OC3CCCCO3)C2OC2CCCCO2)c(=O)n1-c1ccccc1 (centres undefined) > 100 µM

Check the records and state TGI for COC(=O)CCC1(NS(=O)(=O)c2ccc(C)cc2)CCC(C(C)(C)C)CC1 (centres undefined) 35.6 µM

Check the records and state TGI for `COC(=O)[C@]12CC[C@H]3CN(C(=O)OCc4ccccc4)[C@H]([C@H]31)[C@H](C(=O)OCC[Si](C)(C)C)N2S(=O)(=O)c1ccc(C)cc1` > 100 µM

Check the records and state TGI for CCCCOC(=O)NC(c1ccccc1)C(O)C(=O)OC1C[C@@]2(O)C(OC(=O)c3ccccc3)C3[C@](C)(C(=O)[C@H](OC(C)=O)C(=C1C)C2(C)C)[C@@H](O)C[C@H]1OC[C@@]31OC(C)=O (some centres undefined) > 10 µM

Check the records and state TGI for `CC(=O)Nc1ccc2c(C3=C(c4cn(C)c5ccccc45)C(=O)NC3=O)cn(C)c2c1` > 25 µM

Check the records and state TGI for CCC(CN(C)C)C(=O)c1ccco1 (centres undefined) > 100 µM

Check the records and state TGI for `CC1(C)CC(=O)c2c(nc3c(ccc4ccccc43)c2-c2ccc(NC(=O)CCCC(=O)Nc3ccc(-c4c5c(nc6c4ccc4ccccc46)CC(C)(C)CC5=O)cc3)cc2)C1` > 100 µM

Check the records and state TGI for `Cn1cc(C2=C(c3c4n(c5ccccc35)CCN(C(N)=S)C4)C(=O)NC2=O)c2ccccc21` > 25 µM

meta.source: PubChem BioAssay (NCI)
